Biological target: Urokinase-type plasminogen activator (Homo sapiens)
pIC50: −log10 of the molar value.
observable: pIC50

In [3]: df
Out[3]:
                                   molecule  reported_value
0  CC(C)c1ccc(OP(=O)(Oc2ccc(C(C)C)cc2)C(NC(=O)OCc2ccccc2)c2ccc(NC(=N)N)cc2)cc1 (stereo not given)            6.68
1  CCc1ccc(OP(=O)(Oc2ccc(CC)cc2)C(NC(=O)OCc2ccccc2)c2ccc(NC(=N)N)cc2)cc1 (stereo not given)            5.11
2  CC(C)(C)c1ccc(OP(=O)(Oc2ccc(C(C)(C)C)cc2)C(NC(=O)OCc2ccccc2)c2ccc(NC(=N)N)cc2)cc1 (stereo not given)            7.01
3  CC(C)(C)CC(C)(C)c1ccc(OP(=O)(Oc2ccc(C(C)(C)CC(C)(C)C)cc2)C(NC(=O)OCc2ccccc2)c2ccc(NC(=N)N)cc2)cc1 (stereo not given)            6.69
4  COc1ccc(OP(=O)(Oc2ccc(OC)cc2)C(NC(=O)OCc2ccccc2)c2ccc(NC(=N)N)cc2)cc1 (stereo not given)            5.59
5  CS(=O)(=O)c1ccc(OP(=O)(Oc2ccc(S(C)(=O)=O)cc2)C(NC(=O)OCc2ccccc2)c2ccc(NC(=N)N)cc2)cc1 (stereo not given)            7.28
6  CSc1ccc(OP(=O)(Oc2ccc(SC)cc2)C(NC(=O)OCc2ccccc2)c2ccc(NC(=N)N)cc2)cc1 (stereo not given)            7.59
7  N=C(N)Nc1ccc(C(NC(=O)OCc2ccccc2)P(=O)(Oc2ccccc2)Oc2ccccc2)cc1 (stereo not given)            6.27
8  Cc1ccc(OP(=O)(Oc2ccc(C)cc2)C(NC(=O)OCc2ccccc2)c2ccc(NC(=N)N)cc2)cc1 (stereo not given)            6.43
9  N=C(N)Nc1ccc(C(NC(=O)OCc2ccccc2)P(=O)(Oc2ccc3ccccc3c2)Oc2ccc3ccccc3c2)cc1.O=C(O)C(F)(F)F (stereo not given)            6.34

----------
Experiment: Selectivity for trypsin over uPA by chromogenic assay
observable: Ratio IC50

>>> df
                                   compound  reported_value
0  CC(C)(C)CC(C)(C)c1ccc(OP(=O)(Oc2ccc(C(C)(C)CC(C)(C)C)cc2)C(NC(=O)OCc2ccccc2)c2ccc(NC(=N)N)cc2)cc1 (centres undefined)            11.3
1  N=C(N)Nc1ccc(C(NC(=O)OCc2ccccc2)P(=O)(Oc2ccccc2)Oc2ccccc2)cc1 (centres undefined)            0.21
2  Cc1ccc(OP(=O)(Oc2ccc(C)cc2)C(NC(=O)OCc2ccccc2)c2ccc(NC(=N)N)cc2)cc1 (centres undefined)            0.48
3  COc1ccc(OP(=O)(Oc2ccc(OC)cc2)C(NC(=O)OCc2ccccc2)c2ccc(NC(=N)N)cc2)cc1 (centres undefined)             0.1

----------
Assay: Inhibition of bovine trypsin by chromogenic assay using Bzl-L-Arg-pNA as chromogenic substrate
Parameters: species or system Bos taurus
Details: read-out: IC50
Parameter IC50: see the listing below.
observable: IC50 (nM)

>>> print(df.to_string())
                                   compound  observable  unit_abbreviation  reported_value
0  CSc1ccc(OP(=O)(Oc2ccc(SC)cc2)C(NC(=O)OCc2ccccc2)c2ccc(NC(=N)N)cc2)cc1 (centres undefined)        IC50                 nM             8.7
1  CC(C)c1ccc(OP(=O)(Oc2ccc(C(C)C)cc2)C(NC(=O)OCc2ccccc2)c2ccc(NC(=N)N)cc2)cc1 (centres undefined)        IC50                 nM              61
2  N=C(N)Nc1ccc(C(NC(=O)OCc2ccccc2)P(=O)(Oc2ccccc2)Oc2ccccc2)cc1 (centres undefined)        IC50                 nM             112
3  CC(C)(C)CC(C)(C)c1ccc(OP(=O)(Oc2ccc(C(C)(C)CC(C)(C)C)cc2)C(NC(=O)OCc2ccccc2)c2ccc(NC(=N)N)cc2)cc1 (centres undefined)        IC50                 nM            2310
